- System: RXF 393 renal
- test.name: NCI tumour cell line growth inhibition, 48 h
Reported TGI values for the following compounds.
readout.kind: TGI

compound: Cc1ccc(C2=C(c3ccc(C)cc3)C3(c4ccc(C)cc4)[C@@H](C#N)[C@H](C#N)C2(c2ccc(C)cc2)S3=O)cc1 (stereo partly specified)
system.tested: RXF 393 renal
value: > 100 µM

compound: C=CC(=O)NC(O)(C(=O)OCC)C(F)(F)F (stereo unspecified)
system.tested: RXF 393 renal
value: > 100 µM

compound: COC(=O)C1=C2SCc3ccc(cc3)CSC3=C(C(=O)OC)SC(=C(S2)S1)S3
system.tested: RXF 393 renal
value: > 100 µM

compound: N=C(N)SCCc1ccncc1
system.tested: RXF 393 renal
value: > 100 µM

compound: Cc1noc(C)c1C1=CCCCc2ccccc21
system.tested: RXF 393 renal
value: > 100 µM

compound: CCOC(=O)/C=C/C1=C(c2csc3ccccc23)c2ccccc2CC1
system.tested: RXF 393 renal
value: > 100 µM

compound: COc1cc(-c2cc(=O)c3c(OC)c(OC)c(OC)c(OC)c3o2)cc(OC)c1OC
system.tested: RXF 393 renal
value: > 100 µM

compound: C[C@@H](O)[C@H]1C(=O)N2C(C(=O)O)=C(SCCN=CN)C[C@H]12
system.tested: RXF 393 renal
value: 3.58 µM

compound: C=C(C)C(=O)OC1CC2(C)OC(=CC2=O)C(C)CC2OC(=O)C(=C)C12 (stereo unspecified)
system.tested: RXF 393 renal
value: 5.62 µM

compound: COC(=O)C12CCC(C(F)(F)C1=O)C2(C)C (stereo unspecified)
system.tested: RXF 393 renal
value: > 100 µM

compound: COC(=O)C1CC2C=CC1N(C(=O)OCc1ccccc1)C2 (stereo unspecified)
system.tested: RXF 393 renal
value: > 100 µM

* * *

- System: MALME-3M melanoma
- test.name: NCI tumour cell line growth inhibition, 48 h
readout.kind: TGI

compound: N#CC(=N)c1ncn(CCO)c1NC(=O)C(F)(F)F
value: > 100 µM
--
compound: c1ccc([P+](CCN2Cc3ccccc3C2)(c2ccccc2)c2ccccc2)cc1
value: 25.1 µM
--
compound: CCOC(=O)C(NC(=O)CC(C)C)(NC(C)C)C(F)(F)F (stereo not drawn)
value: > 100 µM

* * *

- Test system: NCI-H460 lung
- test.name: NCI tumour cell line growth inhibition, 48 h
Entry flag: t if TGI reaches 10 µM; f if it does not.

compound: CN(C)c1ccc(/C=C/c2ccc3ccccc3[n+]2C)cc1
assigned.label: t
//
compound: CNC(=O)C(C)C1C(=O)/C(=C(O)/C=C\C(C)=C\C(C)C2OC3(C)OC(C=CC34CO4)C2C)C(=O)N1C1CCC(O)C(C)O1 (stereo unspecified)
assigned.label: t
//
compound: Cc1cc(C)c2cc(N)c(Cl)nc2n1
assigned.label: t
//
compound: CCN(CC)CCN1C=CC(C)C(C(=O)O)C1C(N)=O (stereo unspecified)
assigned.label: t
//
compound: O=C(CON1C(=O)c2ccccc2C1=O)c1ccccc1
assigned.label: t
//
compound: O=C(OCCN=C1c2ccccc2CCc2ccccc21)c1ccccc1
assigned.label: t
//
compound: O=C(Nc1ccn(CCOC(=O)c2ccccc2)c(=O)n1)c1ccccc1
assigned.label: t
//
compound: CC(=O)NC1C(OCc2ccccc2)OC(CO)C(O)C1OCC(=O)N1CCCC1C(=O)N[C@@H](CCC(=O)NCCNCCNc1c2ccccc2nc2cccc([N+](=O)[O-])c12)C(N)=O (stereo partly specified)
assigned.label: f
//
compound: COc1cc(C2c3[nH]c4ccccc4c3[C@@H](Nc3ccc(F)cc3)[C@H]3COC(=O)N23)cc(OC)c1O (stereo partly specified)
assigned.label: f
//
compound: COc1cccc(NC(=O)CC(=O)N2NC(c3ccccc3)C(N=Nc3cccc(C(=O)O)c3)C2=O)c1 (stereo unspecified)
assigned.label: t
//
compound: CC(=O)c1cc2c(c(O)c1C)C(=O)C(=O)c1c(O)cccc1-2
assigned.label: f
//
compound: CC(=O)N=C1C=C(NC(C)=O)C(=O)c2ccccc21
assigned.label: t
//
compound: Cn1ccnc1Sc1ccc(/C=N/NC(=O)c2ccccc2[N+](=O)[O-])cc1[N+](=O)[O-]
assigned.label: t
//
compound: Cc1ccc(-c2cc(C(=O)N3N=C(c4ccc(N)cc4)CC3c3ccc(Cl)cc3)c3ccccc3n2)cc1 (stereo unspecified)
assigned.label: t
//
compound: O=C(N=C1N(c2ccccc2)C(=O)C(=O)N1c1ccccc1)c1ccccc1
assigned.label: t
//
compound: c1ccc(NNN2NC(c3ccccc3)C2c2ccccc2)cc1 (stereo unspecified)
assigned.label: t
//
compound: O=C(O)c1cc(-c2ccc3c(O)ccc(O)c3c2)ccc1O
assigned.label: t
//
compound: CC(C)(N=NC(C)(C)C(=N)N)C(=N)N
assigned.label: t
//
compound: COc1ccc(C=Nc2c(O)ccc3ccccc23)cc1OC
assigned.label: t
//
compound: Nc1nc(N)c2cc(CNc3ccc(C(=O)NC(CC(=O)O)C(=O)O)cc3)ccc2n1 (stereo unspecified)
assigned.label: t
//
compound: COc1cccc2c1-c1ccccc1C2=O
assigned.label: t
//
compound: CCC(C(C)N1CC(=O)NC(=O)C1)N1CC(=O)NC(=O)C1 (stereo unspecified)
assigned.label: t
//
compound: c1ccc2cc(CN3CCC(C4CCN(Cc5ccc6ccccc6c5)CC4)CC3)ccc2c1
assigned.label: t
//
compound: O=C(Nc1cccc(-c2cccc(F)c2)c1)C1CCN(Cc2cccc3cccnc23)CC1
assigned.label: f
//
compound: COc1cc(OC)cc(C(=O)NC2=C(Cl)C(=O)c3ccccc3C2=O)c1
assigned.label: f
//
compound: CCOC(=O)/C=C/C1=C(c2csc3ccccc23)c2ccccc2CC1
assigned.label: t
